IC50 (neutralization) listing for selected binders.
molecular target: LASV Pinneo (lineage I) glycoprotein (Lassa virus, strain Pinneo); test: cell-based or functional assay
Measured Quantity: IC50 (neutralization)

binder="25.6A (antibody, V domains shown) VH: QVQLQESGGGLVKAGGSLRLSCAASGFMFERYSLHWVRQTPGKGLEWVSSISSLSGSHINYADSVKGRFTISRDNAKNSLSLQMNSLRVEDTAIYYCARDRRSGSSPVPLDVWGQGTTVTVSS VL: DLPVLTQPASVSGSPGQSITISCTGTSSDVGAYNYVSWYQQHPGKAPKLIIYEVKIRPSGVSNRFSGSKSGNTASLTISGLQAEDEADYFCSSYSTNSPWVFGGGTKVTVLR" value_reported="1.83 mg/L"
binder="9.8A (antibody, V domains shown) VH: EVQLVQSGGRLVQPGGSLRLSCVASGFTFSSHAMSWVRQAPGKGLEWVSGFSGSSGTTKYADSVKGRFTISRDNSKKTLYLQMNSLRAEDTAVYYCAKGFSPFRGVQFPYFDYWGQGTLVTVSS VL: DIVMTQSPSTLSASVGDRVTITCRASQSIDRWLAWYQQKPGKAPKLLIYQASSLERGVPSRFSGSGSGTEFTLTISSLQPDDFATYYCQQYNGYPLTFGGGTKVEIKR" value_reported="1 mg/L"

Origin of the recorded values: patent US20200002405A1
